- TARGET_ENTITY: human FAAH (Fatty Acid Amide Hydrolase) (Homo sapiens (Human), UniProt O00519)
- Sequence (O00519 whole entry): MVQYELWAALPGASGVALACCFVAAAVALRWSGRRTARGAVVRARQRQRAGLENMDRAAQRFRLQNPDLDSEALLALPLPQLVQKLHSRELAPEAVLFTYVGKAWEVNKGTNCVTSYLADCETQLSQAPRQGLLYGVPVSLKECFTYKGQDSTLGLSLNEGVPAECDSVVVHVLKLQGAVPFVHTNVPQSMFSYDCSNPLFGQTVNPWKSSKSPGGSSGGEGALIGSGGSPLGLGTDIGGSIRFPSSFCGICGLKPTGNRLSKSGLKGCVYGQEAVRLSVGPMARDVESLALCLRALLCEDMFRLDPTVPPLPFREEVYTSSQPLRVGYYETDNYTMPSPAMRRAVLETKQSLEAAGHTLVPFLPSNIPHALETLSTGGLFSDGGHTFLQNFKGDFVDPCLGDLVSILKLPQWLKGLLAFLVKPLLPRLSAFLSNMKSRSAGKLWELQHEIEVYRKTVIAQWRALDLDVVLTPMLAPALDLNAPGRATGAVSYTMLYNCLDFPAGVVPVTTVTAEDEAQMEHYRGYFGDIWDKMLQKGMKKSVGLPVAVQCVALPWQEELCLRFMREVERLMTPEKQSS
- TEST_NAME: FAAH inhibition, human FAAH CHO whole cell format
- Type: cell-based
Sorting guide: entries reporting IC50 beneath 0.5 µM go in the Met pile, the rest go in the Not met pile.

{"MOLECULE": "COc1ccc(Sc2oc(C3CCOCC3)nc2-c2ccc(C(C)(C)O)nc2)cn1", "CATEGORY": "Not met"}
{"MOLECULE": "CC(O)(CO)c1ccc(-c2nc(C3CCOCC3)oc2Sc2ccc(Cl)cc2)cn1 (stereo not shown)", "CATEGORY": "Met"}
{"MOLECULE": "COc1ccc(OC(=O)N2CCC(c3nc(C4CCOCC4)oc3Sc3ccc(Cl)cn3)CC2)cc1", "CATEGORY": "Not met"}

Task item: In the record for `CC(C)(C)OC(=O)N1CCC(c2nc(-c3ccc(S(C)(=O)=O)cc3)c(Sc3ccc(Cl)cn3)o2)CC1` , is IC50 less than 0.5 µM?
Reply: Met

Task item: API: query returns whether the molecule falls strictly under 0.5 µM in IC50. Query: `COc1ccc(Sc2oc(C3CCOCC3)nc2-c2ccc(C(C)(C)O)nc2)nc1`
Reply: Met

Task item: Dear colleague, could you confirm whether IC50 of `Clc1ccc(Sc2oc(C3CCOCC3)nc2-c2cnc3cc[nH]c3c2)cc1` falls below 0.5 µM? Thanks.
Reply: Met

Task item: For COCCOCC(=O)N1CCC(c2nc(-c3ccc([S+](C)[O-])cc3)c(Sc3ccc(Cl)cn3)o2)CC1 (stereo not shown) , is the recorded IC50 below the cut-off of 0.5 µM?
Reply: Not met

Task item: Does CCOC(=O)N1CCC(c2nc(-c3ccc([S+](C)[O-])cc3)c(Sc3ccc(Cl)cn3)o2)CC1 (stereo not shown) have IC50 strictly under 0.5 µM?
Reply: Met

Task item: Decide: IC50 of `CN1CCN(c2ccc(-c3nc(C4CCOCC4)oc3Sc3ccc(Cl)cc3)cn2)CC1` strictly below 0.5 µM?
Reply: Met

Task item: # check: IC50 < 0.5 µM for COCCOCCOCC(=O)N1CCC(c2nc(-c3ccc([S+](C)[O-])cc3)c(Sc3ccc(Cl)cn3)o2)CC1 (stereo not shown)
Reply: Not met

Task item: Hi there! Is IC50 for `Clc1ccc(Sc2oc(C3CCOCC3)nc2-c2ccc(N3CCOCC3)nc2)cc1` below 0.5 µM, do you know?
Reply: Met

Task item: is_below(IC50, 0.5 µM) for `CC(C)(O)c1ccc(-c2nc(C3CCOCC3)oc2Sc2ncc(Cl)cn2)cn1` ?
Reply: Not met

Task item: A record lists C[S+]([O-])c1ccc(-c2nc(C3CCN(C(=O)OCCNCCO)CC3)oc2Sc2ccc(Cl)cn2)cc1 (stereo not shown) . Is its IC50 below 0.5 µM?
Reply: Not met

Task item: Please indicate whether the reported IC50 of COC(=O)N1CCC(c2nc(-c3ccc([S+](C)[O-])cc3)c(Sc3ccc(Cl)cn3)o2)CC1 (stereo not shown) is strictly below 0.5 µM.
Reply: Not met

Task item: Confirm or reject: IC50 of `CC(C)(O)c1ccc(-c2nc(C3CCOCC3)oc2Sc2ccc(OC(F)F)cn2)cn1` lies strictly below 0.5 µM
Reply: Not met

Task item: Hi there! Is IC50 for C[S+]([O-])c1ccc(-c2nc(C3=CCC(O)CC3)oc2Sc2ccc(Cl)cc2)cc1 (stereo not shown) below 0.5 µM, do you know?
Reply: Met
